assay: Plasma protein binding, equilibrium dialysis, mouse plasma; settings: CD-1, mouse

| smiles_data | unit_string | recovery at 5 hours, 1 microM |
| --- | --- | --- |
| CC(C)C[C@@H]1NC(=O)[C@H](Cc2c[nH]c3ccccc23)NC(=O)[C@@H]2CCCN2[C@H](C(=O)NC(C)(C)C)[C@H](C)NC(=O)[C@H]([C@@H](C)O)NC(=O)[C@H](CC(=O)O)NC1=O | % | 150 |

---

settings: mouse, in vivo, po
measured_metric: oral bioavailability / absorption (in words)

| smiles_data | observed_result |
| --- | --- |
| CC(C)C[C@@H]1NC(=O)c2ccc(-c3ccnc4ccccc34)c(c2)CNC(=O)[C@@H]2CCCN2[C@H](C(=O)NC(C)(C)C)[C@H](C)NC(=O)[C@H]([C@@H](C)O)NC(=O)[C@H](CC(=O)O)NC1=O | low oral bioavailability |
| CC(C)C[C@@H]1NC(=O)CN(C)C(=O)[C@H](Cc2ccc(O)cc2)NC(=O)[C@@H]2CCCN2[C@H](C(=O)NC(C)(C)C)[C@H](C)NC(=O)[C@H]([C@@H](C)O)NC(=O)[C@H](CC(=O)O)NC1=O | low oral bioavailability |

---

biological target: UniProtKB P05177; test: in vitro; details: human, microsomes
Sequence (P05177 whole entry): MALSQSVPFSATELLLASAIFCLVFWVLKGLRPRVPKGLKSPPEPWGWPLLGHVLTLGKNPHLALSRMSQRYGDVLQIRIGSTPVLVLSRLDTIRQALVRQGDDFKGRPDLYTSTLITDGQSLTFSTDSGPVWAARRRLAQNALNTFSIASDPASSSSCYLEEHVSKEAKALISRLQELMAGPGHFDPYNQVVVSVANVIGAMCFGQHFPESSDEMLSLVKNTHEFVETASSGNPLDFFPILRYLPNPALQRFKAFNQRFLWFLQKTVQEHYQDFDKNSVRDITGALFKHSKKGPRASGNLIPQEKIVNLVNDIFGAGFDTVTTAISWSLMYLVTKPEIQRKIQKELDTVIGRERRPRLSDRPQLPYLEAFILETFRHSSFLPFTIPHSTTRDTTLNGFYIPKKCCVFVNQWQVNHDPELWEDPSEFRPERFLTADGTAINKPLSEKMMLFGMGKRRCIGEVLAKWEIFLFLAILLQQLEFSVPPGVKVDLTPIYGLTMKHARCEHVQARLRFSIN
IC50 reference

| smiles_data | IC50 |
| --- | --- |
| CC(C)C[C@@H]1NC(=O)[C@H](Cc2c[nH]c3ccccc23)NC(=O)[C@@H]2CCCN2[C@H](C(=O)NC(C)(C)C)[C@H](C)NC(=O)[C@H]([C@@H](C)O)NC(=O)[C@H](CC(=O)O)NC1=O | > 15 µM |
| CC(C)C[C@H]1C(=O)N[C@@H](C(C)C)C(=O)N[C@@H](Cc2ccccc2)C(=O)N[C@@H](C)[C@@H](C(=O)NC(C)(C)C)N2CCC[C@H]2C(=O)N[C@@H]([C@@H](C)O)C(=O)N1C | > 15 µM |
| CC[C@H](C)[C@@H]1NC(=O)[C@H](CCO)NC(=O)[C@H](CC(C)C)NC(=O)[C@H](Cc2ccc3ccccc3c2)NC(=O)[C@@H]2CCCN2[C@H](C(=O)NC(C)(C)C)[C@H](C)NC1=O | > 15 µM |

---

experiment: Plasma protein binding, equilibrium dialysis, mouse plasma; settings: CD-1, mouse, 50% plasma, % unbound (Cbuffer/Cplasma) Mouse plasma 2, replicate 2, 1 microM, 5 h
fraction unbound at 5 h, 1 microM reference
measured_metric: fraction unbound at 5 h, 1 microM

| compound | observed_result |
| --- | --- |
| CC(C)NCC(O)COc1cccc2ccccc12 (centres unmarked) [Propranolol, reference compound] | 0.201 |
| CC(C)C[C@@H]1NC(=O)[C@H](Cc2c[nH]c3ccccc23)NC(=O)[C@@H]2CCCN2[C@H](C(=O)NC(C)(C)C)[C@H](C)NC(=O)[C@H]([C@@H](C)O)NC(=O)[C@H](CC(=O)O)NC1=O | 0.744 |

---

Target: integrin α4β7 (Homo sapiens, UniProt P13612+P26010)
Sequence (P13612 34-977 limits assumed): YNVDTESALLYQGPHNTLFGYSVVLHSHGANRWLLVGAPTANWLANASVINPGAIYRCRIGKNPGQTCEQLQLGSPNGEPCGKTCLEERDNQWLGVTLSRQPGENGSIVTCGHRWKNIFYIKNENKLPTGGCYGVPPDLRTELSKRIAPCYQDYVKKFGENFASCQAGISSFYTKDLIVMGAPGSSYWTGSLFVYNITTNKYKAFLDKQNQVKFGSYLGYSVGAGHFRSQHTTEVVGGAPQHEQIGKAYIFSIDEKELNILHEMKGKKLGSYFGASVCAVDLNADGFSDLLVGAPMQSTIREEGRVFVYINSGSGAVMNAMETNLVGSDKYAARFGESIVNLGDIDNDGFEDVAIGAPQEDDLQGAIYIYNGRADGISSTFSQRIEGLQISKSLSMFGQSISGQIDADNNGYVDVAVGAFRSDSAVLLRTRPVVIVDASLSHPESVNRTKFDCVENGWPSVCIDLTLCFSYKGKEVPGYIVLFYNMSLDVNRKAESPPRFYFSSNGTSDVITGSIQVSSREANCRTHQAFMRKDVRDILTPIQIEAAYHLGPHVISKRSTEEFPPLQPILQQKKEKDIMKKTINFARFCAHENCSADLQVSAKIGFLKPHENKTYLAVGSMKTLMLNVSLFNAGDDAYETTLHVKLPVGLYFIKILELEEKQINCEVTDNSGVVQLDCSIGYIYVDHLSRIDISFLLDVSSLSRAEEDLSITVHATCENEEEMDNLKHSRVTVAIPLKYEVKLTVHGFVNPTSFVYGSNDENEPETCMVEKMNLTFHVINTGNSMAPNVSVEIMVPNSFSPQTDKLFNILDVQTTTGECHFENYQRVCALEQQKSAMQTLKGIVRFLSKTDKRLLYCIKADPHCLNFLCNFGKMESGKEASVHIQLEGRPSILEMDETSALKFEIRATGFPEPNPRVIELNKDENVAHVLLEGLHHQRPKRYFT
Sequence (P26010 20-723 limits assumed): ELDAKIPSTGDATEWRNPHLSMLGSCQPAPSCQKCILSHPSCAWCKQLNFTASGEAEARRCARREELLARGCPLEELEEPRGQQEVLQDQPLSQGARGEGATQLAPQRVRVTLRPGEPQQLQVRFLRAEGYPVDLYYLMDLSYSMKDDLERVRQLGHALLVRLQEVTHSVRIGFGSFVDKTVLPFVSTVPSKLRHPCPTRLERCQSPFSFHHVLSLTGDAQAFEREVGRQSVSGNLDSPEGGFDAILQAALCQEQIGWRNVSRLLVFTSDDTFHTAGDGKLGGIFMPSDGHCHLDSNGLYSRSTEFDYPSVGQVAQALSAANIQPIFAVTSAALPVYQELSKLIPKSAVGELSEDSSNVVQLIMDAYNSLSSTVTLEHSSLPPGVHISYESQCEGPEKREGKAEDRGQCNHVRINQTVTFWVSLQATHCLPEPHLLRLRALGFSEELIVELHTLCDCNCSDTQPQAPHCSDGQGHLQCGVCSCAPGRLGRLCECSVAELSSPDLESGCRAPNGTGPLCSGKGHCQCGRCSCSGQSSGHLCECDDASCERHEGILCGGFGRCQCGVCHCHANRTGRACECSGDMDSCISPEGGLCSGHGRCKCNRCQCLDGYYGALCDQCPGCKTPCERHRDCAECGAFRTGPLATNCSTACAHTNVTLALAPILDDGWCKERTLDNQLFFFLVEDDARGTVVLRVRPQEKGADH
Test: Integrin α4β7—MAdCAM-1 competition assay (ELISA)
Type: binding
Conditions: ratio a4b1 ELISA IC50 / a4b7 ELISA IC50
measured_metric: Selectivity ELISA

| smiles_data | target_system | measured_metric | observed_result |
| --- | --- | --- | --- |
| CC(C)C[C@@H]1NC(=O)[C@H]2CCCCN2C(=O)[C@H](Cc2cscn2)NC(=O)[C@@H]2CCCN2[C@H](C(=O)NC(C)(C)C)[C@H](C)NC(=O)[C@H]([C@@H](C)O)NC(=O)[C@H](CC(=O)O)NC1=O | integrin α4β7 (Homo sapiens, UniProt P13612+P26010) | Selectivity ELISA | 3.1 |
| CC(C)C[C@@H]1NC(=O)[C@@H]2C[C@@H](O)CN2C(=O)[C@H](Cc2ccc(O)cc2)NC(=O)[C@@H]2CCCN2[C@H](C(=O)NC(C)(C)C)[C@H](C)NC(=O)[C@H]([C@@H](C)O)NC(=O)[C@H](CC(=O)O)NC1=O | integrin α4β7 (Homo sapiens, UniProt P13612+P26010) | Selectivity ELISA | 0.7 |
| CC(C)C[C@@H]1NC(=O)[C@H](Cc2ccc(-c3ccccc3)cc2)NC(=O)[C@@H]2C[C@@H](F)CN2[C@H](C(=O)NC(C)(C)C)[C@H](C)NC(=O)[C@H]([C@@H](C)O)NC(=O)[C@H](CC(=O)O)NC1=O | integrin α4β7 (Homo sapiens, UniProt P13612+P26010) | Selectivity ELISA | 2.4 |
| CC(C)C[C@@H]1NC(=O)CN(C)C(=O)[C@H](Cc2ccc(I)cc2)NC(=O)[C@@H]2CCCN2[C@H](C(=O)NC(C)(C)C)[C@H](C)NC(=O)[C@H]([C@@H](C)O)NC(=O)[C@H](CC(=O)O)NC1=O | integrin α4β7 (Homo sapiens, UniProt P13612+P26010) | Selectivity ELISA | 16.0 |
| CC(C)C[C@@H]1NC(=O)[C@H]2CCCCN2C(=O)[C@@H]2CCCN2[C@H](C(=O)NC(C)(C)C)[C@H](C)NC(=O)[C@H]([C@@H](C)O)NC(=O)[C@H](CC(=O)O)NC1=O | integrin α4β7 (Homo sapiens, UniProt P13612+P26010) | Selectivity ELISA | 3.3 |
| CC(C)C[C@@H]1NC(=O)[C@H](Cc2cccc3ccccc23)NC(=O)[C@@H]2CCCN2[C@H](C(=O)NC(C)(C)C)[C@H](C)NC(=O)[C@H]([C@@H](C)O)NC(=O)[C@H](CC(=O)O)NC1=O | integrin α4β7 (Homo sapiens, UniProt P13612+P26010) | Selectivity ELISA | 1.7 |
| CC(C)C[C@@H]1NC(=O)CN(C)C(=O)[C@H](Cc2cccc3ccccc23)NC(=O)[C@@H]2CCCN2[C@H](C(=O)NC(C)(C)C)[C@H](C)NC(=O)[C@H]([C@@H](C)O)NC(=O)[C@H](CC(=O)O)NC1=O | integrin α4β7 (Homo sapiens, UniProt P13612+P26010) | Selectivity ELISA | 8.7 |
| C=CCOc1ccc(C[C@@H]2NC(=O)[C@@H]3CCCN3[C@H](C(=O)NC(C)(C)C)[C@H](C)NC(=O)[C@H]([C@@H](C)O)NC(=O)[C@H](CC(=O)O)NC(=O)[C@H](CC(C)C)NC(=O)[C@@H](C(C)C)NC2=O)cc1 | integrin α4β7 (Homo sapiens, UniProt P13612+P26010) | Selectivity ELISA | 7.7 |
| CCO[C@H](C)[C@@H]1NC(=O)[C@H](CC(=O)O)NC(=O)[C@H](CC(C)C)NC(=O)[C@H](Cc2ccccc2)NC(=O)[C@@H]2CCCN2[C@H](C(=O)NC(C)(C)C)[C@H](C)NC1=O | integrin α4β7 (Homo sapiens, UniProt P13612+P26010) | Selectivity ELISA | 2.5 |
